These data points were gathered from patent US20240270821A1.

Recorded Relative cAMP EC50 for the following binders
Target: T1, human GIP receptor (human) (UniProt P48546)
T1 sequence (looked up): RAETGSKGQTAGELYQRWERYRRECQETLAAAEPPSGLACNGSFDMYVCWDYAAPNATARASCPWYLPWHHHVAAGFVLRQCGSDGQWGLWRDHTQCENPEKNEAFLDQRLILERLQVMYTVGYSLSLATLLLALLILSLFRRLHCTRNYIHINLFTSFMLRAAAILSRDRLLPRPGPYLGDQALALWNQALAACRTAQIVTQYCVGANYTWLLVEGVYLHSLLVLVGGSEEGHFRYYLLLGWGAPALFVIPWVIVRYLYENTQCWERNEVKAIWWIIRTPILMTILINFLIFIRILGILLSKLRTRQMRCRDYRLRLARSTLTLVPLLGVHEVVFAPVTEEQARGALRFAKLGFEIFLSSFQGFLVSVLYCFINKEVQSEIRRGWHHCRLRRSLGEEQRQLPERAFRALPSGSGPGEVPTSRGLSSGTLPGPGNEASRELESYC
Test: cell-based or functional assay
Give just the number in nM; leave the unit off.

Some binders with recorded Relative cAMP EC50:
binder | unit_descriptor | reported
YXQGTXTSDXXIXLDXKAQXXFIEXLLEGGPSSXEPPPE (synthetic construct; SITE 2: note = 2-Aminoisobutyric Acid; SITE 6: note = alpha-methyl-2-fluoro-L-phenylalanine; SITE 10: note = 3-(4-Pyridyl)-L-alanine; SITE 11: note = alpha-methyl-L-serine; SITE 13: note = alpha-methyl-leucine; SITE 16: note = L-ornithine; SITE 17: note = Lysine is chemically mo) [Example 380] | nM | 0.0346
YXQGTXTSDXXIXLDXXAQXEFIEXLIEGGPSSGAPPPSGS (synthetic construct; SITE 2: note = 2-Aminoisobutyric Acid; SITE 6: note = alpha-methyl-2-fluoro-L-phenylalanine; SITE 10: note = 3-(4-Pyridyl)-L-alanine; SITE 11: note = alpha-methyl-L-serine; SITE 13: note = alpha-methyl-leucine; SITE 16: note = L-ornithine; SITE 17: note = Ornithine is chemically) [Example 1211] | nM | 0.00592
YXQGTXTSDXXIXLDXKAQXEFIEXLVEGGPSSGAPPPESE (not fully specified; acylated lysine AEEA-γGlu-C18 diacid; non-natural residues; C-terminal amide; synthetic construct; SITE 2: note = 2-Aminoisobutyric Acid; SITE 6: note = alpha-methyl-2-fluoro-L-phenylalanine; SITE 10: note = 3-(4-Pyridyl)-L-alanine; SITE 11: note = alpha-methyl-L-serine; SITE 13: note = alpha-methyl-leucine; SITE 16: note = L-ornithine; SITE 17: note = Lysine is chemically mo) [Example 1156] | nM | 0.0127

The binder listed as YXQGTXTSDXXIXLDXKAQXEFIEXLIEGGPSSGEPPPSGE (non-natural residues, (γGlu)2-C18 diacid lysine acylation, C-terminal amide; synthetic construct; SITE 2: note = 2-Aminoisobutyric Acid; SITE 6: note = alpha-methyl-L-phenylalanine; SITE 10: note = 3-(4-Pyridyl)-L-alanine; SITE 11: note = alpha-methyl-L-serine; SITE 13: note = alpha-methyl-leucine; SITE 16: note = L-ornithine; SITE 17: note = Lysine is chemically modified th) [Example 1171] shows Relative cAMP EC50 equal to 0.00953

The binder listed as YXQGTFTSDXSXXLDKKAQXAFIEXLIEXGPSSGEPPPSGS (Lys acylated (γ-Glu)2-C18 diacid; non-natural residues; C-terminal amide; synthetic construct; SITE 2: note = 2-Aminoisobutyric Acid; SITE 10: note = 3-(4-Pyridyl)-L-alanine; SITE 12: note = L-ornithine; SITE 13: note = alpha-methyl-leucine; SITE 17: note = Lysine is chemically modified through conjugation of the epsilon-amino group of the Lysine side chain with (gamma-Gl)) [Example 989] shows Relative cAMP EC50 equal to 0.103

The binder listed as YXQGTFTSDXXQXLDXKAQXQFIEXLIAXGPSSGEPPPSGGGE (non-natural residues; lysine acylated with C18 diacid; C-terminal amide; synthetic construct; SITE 2: note = 2-Aminoisobutyric Acid; SITE 10: note = 3-(4-Pyridyl)-L-alanine; SITE 11: note = alpha-methyl-L-serine; SITE 13: note = alpha-methyl-leucine; SITE 16: note = L-ornithine; SITE 17: note = Lysine is chemically modified through conjugation of the epsilon-amino group) [Example 1182] shows Relative cAMP EC50 equal to 0.0316
